targetOrSystem: T1, NHERF3_1, Q5T2W1
T1 sequence (Q5T2W1 4-100, limits assumed, looked up): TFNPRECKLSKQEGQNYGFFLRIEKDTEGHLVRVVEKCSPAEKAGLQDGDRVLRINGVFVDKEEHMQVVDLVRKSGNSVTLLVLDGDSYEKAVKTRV
methodDescription: holdup assay
Set-up: key: below the threshold = too weak to quantify, mostly under pKd 3.1 to 4
particulars: plain residues with an end cap or a label only (N-terminal biotin on a linker: ttds)
Please mark YES if the recorded pKd is equal to or greater than 5, and NO if it falls below.

Enquiry: Given KKYVDAETSL [SLC4A7, Q9Y6M7] , state whether its pKd is at least 5.
Return: YES

Enquiry: Identify whether the reported pKd of the following binder is 5 or greater: VDFPPKESSL [ACVR2A, P27037]
Return: NO

Enquiry: Record QRQARSETLV [HPV59-E6, Q81964] ; criterion: pKd no lower than 5. Met?
Return: NO

Enquiry: // inclusive: pKd at least 5? input: SKPTRRETEV [HPV35-E6, P27228]
Return: NO

Enquiry: Quick check, pKd >= 5? SSLQSLETSV [ATP2B4, P23634]
Return: NO

Enquiry: Could you tell me if the measured pKd of DKDPHSETAL [TMIGD1, Q6UXZ0] reaches 5 or more?
Return: YES

Enquiry: Record NDPAWDETNL [ARHGEF7, Q14155;Q14155-1] ; criterion: pKd no lower than 5. Met?
Return: NO
